System under test: recombinant human DPP9 (Homo sapiens, UniProt Q86TI2)
Construct: purchased R&D Systems
Sequence (Q86TI2 whole entry): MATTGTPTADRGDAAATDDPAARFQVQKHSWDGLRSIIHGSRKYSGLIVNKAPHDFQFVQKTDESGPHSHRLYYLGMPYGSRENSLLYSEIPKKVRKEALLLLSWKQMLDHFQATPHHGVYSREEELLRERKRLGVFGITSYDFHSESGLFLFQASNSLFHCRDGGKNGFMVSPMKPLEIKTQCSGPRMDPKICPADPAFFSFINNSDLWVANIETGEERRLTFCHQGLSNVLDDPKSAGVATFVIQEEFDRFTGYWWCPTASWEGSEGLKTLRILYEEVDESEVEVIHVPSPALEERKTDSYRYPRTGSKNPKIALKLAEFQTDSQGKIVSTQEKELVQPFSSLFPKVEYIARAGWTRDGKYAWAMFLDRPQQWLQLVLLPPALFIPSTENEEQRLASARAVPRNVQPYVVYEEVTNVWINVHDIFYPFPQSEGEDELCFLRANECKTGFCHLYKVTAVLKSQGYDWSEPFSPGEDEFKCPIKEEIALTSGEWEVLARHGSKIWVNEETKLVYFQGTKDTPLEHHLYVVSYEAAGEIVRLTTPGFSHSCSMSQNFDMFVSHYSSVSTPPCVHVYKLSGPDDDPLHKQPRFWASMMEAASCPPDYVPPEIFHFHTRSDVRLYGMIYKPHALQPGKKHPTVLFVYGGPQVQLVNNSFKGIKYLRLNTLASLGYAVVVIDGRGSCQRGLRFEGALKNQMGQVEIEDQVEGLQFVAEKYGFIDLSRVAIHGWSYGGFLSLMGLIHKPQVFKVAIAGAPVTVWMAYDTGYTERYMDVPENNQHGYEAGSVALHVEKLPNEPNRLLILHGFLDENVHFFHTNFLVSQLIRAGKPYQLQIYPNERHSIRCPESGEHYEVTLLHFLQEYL
Assay info: DPP9 inhibition, fluorogenic substrate H-Gly-Pro-AMC
Type: biochemical
Condition summary: recombinant human DPP9
pIC50: −log10 of the molar value.
Measurement label: pIC50

N#C[C@@H]1C[C@H](F)CN1C(=O)CN1CC[C@@H](Nc2cccc3ncccc23)C1	5.74
Cc1cc(N[C@H]2CCN(CC(=O)N3C[C@@H](F)C[C@H]3C#N)C2)cc2cccnc12	6.13
CCOc1ccc(NC2CCN(CC(=O)N3C[C@@H](F)C[C@H]3C#N)CC2)c2cccnc12	5.28
Cc1cc(OC2CCN(CC(=O)N3C[C@@H](F)C[C@H]3C#N)CC2)c2cc(F)ccc2n1	4.76
N#C[C@@H]1C[C@H](F)CN1C(=O)CN1CC[C@H](Nc2cccc3ncc(Cl)cc23)C1	5.16
N#C[C@@H]1C[C@H](F)CN1C(=O)CN1CCC(Oc2cccc3cnccc23)CC1	5.38
N#C[C@@H]1C[C@H](F)CN1C(=O)CN1CC[C@H](Nc2ccc(O)c3ncccc23)C1	5.27
